# TGT: Nrg2 (UniProt P38082)
# Sequence: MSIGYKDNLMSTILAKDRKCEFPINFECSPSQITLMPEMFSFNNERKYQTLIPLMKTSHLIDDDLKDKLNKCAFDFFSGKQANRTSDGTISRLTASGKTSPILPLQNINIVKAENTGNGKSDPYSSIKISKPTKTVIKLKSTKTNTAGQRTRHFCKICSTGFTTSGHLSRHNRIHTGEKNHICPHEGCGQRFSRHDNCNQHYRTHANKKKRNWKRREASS
# ASSAY EXPLANATION: PBM E-score (8-mer binding enrichment) (E-score (-0.5 to 0.5)); higher = stronger / more preferred TF binding
# CONDITIONS USED: protein concentration: 100 nM; construct: GST-full length
The full ranking holds about 33,000 sequences; the median of “E-score (-0.5 to 0.5)” is about -8e-05, and the highest 2% start at about 0.23. The sample holds the highest values, similar sequences and a random draw of the others, so the mix is not that of the screen.
VALUE KIND: PBM E-score

Here are 4 sequences together with their reported answers.
> print(dat)
   seq.string                    tgt   result
1    CCATAGGG  Nrg2 (UniProt P38082)  0.00266
2    CCTATATA  Nrg2 (UniProt P38082)   0.0688
3    GCCCCTTA  Nrg2 (UniProt P38082)    0.114
4    AGCGAAAC  Nrg2 (UniProt P38082)    0.102

Lab note: need PBM E-score for `ATCCGAAC` on Nrg2 (UniProt P38082), anyone have it? 0.0668

Please answer likewise for `ACGGACGT` -0.169

Record: `CTCATTTC` -0.0953

What about `ATCATTTA` ? 0.0968

###

# TGT: Nrg2 (UniProt P38082)
# Sequence: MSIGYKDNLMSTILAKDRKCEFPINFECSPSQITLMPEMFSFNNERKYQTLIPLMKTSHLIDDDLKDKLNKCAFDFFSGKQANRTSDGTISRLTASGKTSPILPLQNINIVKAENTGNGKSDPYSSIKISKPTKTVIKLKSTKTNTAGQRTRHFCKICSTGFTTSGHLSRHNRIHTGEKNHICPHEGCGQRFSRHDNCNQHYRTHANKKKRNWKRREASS
# ASSAY EXPLANATION: PBM E-score (8-mer binding enrichment) (E-score (-0.5 to 0.5)); higher = stronger / more preferred TF binding
# CONDITIONS USED: protein concentration: 100 nM; construct: GST-full length
In all, about 33,000 sequences were measured (“E-score (-0.5 to 0.5)”: median about -8e-05, highest 2% from about 0.23 on). The sample holds the highest values, similar sequences and a random draw of the others, so the mix is not that of the screen.
Please note: Met applies when PBM E-score is 0.1 or greater, and Not met applies otherwise.

> print(dat)
   seq.string                    tgt  category
1    CGGTAGAC  Nrg2 (UniProt P38082)   Not met
2    AAGCTATC  Nrg2 (UniProt P38082)       Met
3    TAGTTTCA  Nrg2 (UniProt P38082)       Met
4    ATAAAAAG  Nrg2 (UniProt P38082)       Met
5    GTACTAAA  Nrg2 (UniProt P38082)       Met

Reported PBM E-score at or above 0.1? `ATCAAACC` Met

Field entry: `GGATAAAC` Met

Try this sequence too: `CCCTGTAC` Met

Then this sequence: `ATAAATAA` Met

// repeat for `AAGTTTCA` and report Met

// repeat for `ATAAATAC` and report Met

Now the same for `ATCTGCGG` Met

###

# TGT: Nrg2 (UniProt P38082)
# Sequence: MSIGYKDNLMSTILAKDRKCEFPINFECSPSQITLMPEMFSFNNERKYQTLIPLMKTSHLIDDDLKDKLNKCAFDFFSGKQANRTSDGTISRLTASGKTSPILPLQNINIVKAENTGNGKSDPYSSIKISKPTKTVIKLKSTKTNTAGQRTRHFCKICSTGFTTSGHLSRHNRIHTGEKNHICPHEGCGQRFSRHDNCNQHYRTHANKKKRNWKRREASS
# ASSAY EXPLANATION: PBM E-score (8-mer binding enrichment) (E-score (-0.5 to 0.5)); higher = stronger / more preferred TF binding
# CONDITIONS USED: protein concentration: 100 nM; construct: GST-full length
In all, about 33,000 sequences were measured (“E-score (-0.5 to 0.5)”: median about -8e-05, highest 2% from about 0.23 on). Only a selection was taken, and the highest values are over-represented in it overall.
VALUE KIND: PBM E-score
Respond using a number only.

The following sequences have reported results that may help.
> print(dat)
   seq.string                    tgt  recorded.number
1    AACGCGAG  Nrg2 (UniProt P38082)            0.092
2    TCAATACA  Nrg2 (UniProt P38082)           0.0827
3    GGTTATGA  Nrg2 (UniProt P38082)          -0.0752

Which PBM E-score is reported for this sequence? `AGGGTGCG` 0.0103

Also, `ATGTCCGG` please. 0.0983

Can you check `AGCAAATC` next? 0.147

// same read-out, input: `AGCGGGTC` -0.21

###

# TGT: Nrg2 (UniProt P38082)
# Sequence: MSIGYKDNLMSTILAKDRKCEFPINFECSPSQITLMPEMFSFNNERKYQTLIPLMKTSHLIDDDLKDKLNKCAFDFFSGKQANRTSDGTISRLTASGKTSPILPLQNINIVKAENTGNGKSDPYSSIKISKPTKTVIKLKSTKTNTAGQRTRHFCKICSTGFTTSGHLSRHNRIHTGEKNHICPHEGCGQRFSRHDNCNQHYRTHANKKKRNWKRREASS
# ASSAY EXPLANATION: PBM E-score (8-mer binding enrichment) (E-score (-0.5 to 0.5)); higher = stronger / more preferred TF binding
# CONDITIONS USED: protein concentration: 100 nM; construct: GST-full length
In all, about 33,000 sequences were measured (“E-score (-0.5 to 0.5)”: median about -8e-05, highest 2% from about 0.23 on). The list comes from a sample in which the highest values are over-represented; it also holds close analogues and randomly drawn sequences.
// N strictly below 0.07 in PBM E-score; Y otherwise

Observe how each entry below is paired with its result.
> print(dat)
   seq.string  category
1    TACAAATA         Y
2    AACAAAGG         Y

Assess whether reported PBM E-score for `ACAGGCTC` sits at 0.07 or higher. N

Would you kindly repeat that for `AACAAATG` ? N

Same read-out for `CGAGCTAC` ? Y

Okay, and `CGCAAGGC` ? Y

Please do the same for `ACGAGGGC` as well. N

Another sequence to look at: `AAAGCTTG` N

And then `GTATGCGA` , what is it? Y

Same question for `AACAAACA` please. Y

###

# TGT: Nrg2 (UniProt P38082)
# Sequence: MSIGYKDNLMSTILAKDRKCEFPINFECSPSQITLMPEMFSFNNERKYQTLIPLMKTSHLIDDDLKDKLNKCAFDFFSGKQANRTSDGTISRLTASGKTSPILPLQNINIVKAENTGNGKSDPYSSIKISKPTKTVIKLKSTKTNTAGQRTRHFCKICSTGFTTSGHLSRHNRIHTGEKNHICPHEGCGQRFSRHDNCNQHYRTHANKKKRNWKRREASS
# ASSAY EXPLANATION: PBM E-score (8-mer binding enrichment) (E-score (-0.5 to 0.5)); higher = stronger / more preferred TF binding
# CONDITIONS USED: protein concentration: 100 nM; construct: GST-full length
The full ranking holds about 33,000 sequences; the median of “E-score (-0.5 to 0.5)” is about -8e-05, and the highest 2% start at about 0.23. The sample as a whole holds a higher share of the highest values than the screen did.
VALUE KIND: PBM E-score

Solved entries (count: 4):
> print(dat)
   seq.string   value.kind   result
1    AGGCCACA  PBM E-score   -0.149
2    GCCGTCTA  PBM E-score  -0.0529
3    AAATTGCA  PBM E-score    0.232
4    AATTGAGG  PBM E-score   0.0708

Quick check: PBM E-score of `CAACACTA` ? 0.147

Moving on to the next sequence: `CGCGCACC` 0.14

And what about the sequence `CAGCAATC` ? 0.0368

Try `AAATTGCT` next. -0.0593

Likewise for `CTCGGCCA` ? 0.104

What do we get for `CTACAGGC` ? -0.0785

Next: `AATTGAGT` 0.245
